Data credit: ChEMBL document CHEMBL1144334

- study-system: Growth hormone secretagogue receptor type 1 (Homo sapiens)
- Sequence (Q92847 whole entry): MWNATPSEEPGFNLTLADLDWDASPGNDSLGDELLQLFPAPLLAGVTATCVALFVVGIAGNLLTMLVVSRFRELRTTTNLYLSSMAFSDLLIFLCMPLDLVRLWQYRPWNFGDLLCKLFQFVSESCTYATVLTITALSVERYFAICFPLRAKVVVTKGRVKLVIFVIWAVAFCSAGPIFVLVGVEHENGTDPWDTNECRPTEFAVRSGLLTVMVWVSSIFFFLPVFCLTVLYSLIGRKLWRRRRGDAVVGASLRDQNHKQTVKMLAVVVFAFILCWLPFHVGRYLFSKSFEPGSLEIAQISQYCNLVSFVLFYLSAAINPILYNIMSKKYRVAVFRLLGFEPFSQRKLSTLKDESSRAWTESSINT
- assay-remarks: Inhibition of ghrelin-induced increase of intracellular [Ca2+] in CHO K cell FLIPR assay
- Format: functional, cell-based
Listed compounds paired with reported pIC50
# pIC50 = -log10(concentration in molar units)

Answered examples (4):
>>> reading("CCN(CC)c1ccc(NC(=O)c2c(-c3c(Cl)cccc3Cl)noc2CCC2OCCCO2)c(C)c1")
8.00
>>> reading("Cc1onc(-c2c(Cl)cccc2Cl)c1C(=O)Nc1ccccc1C(=O)N1CCCCCC1")
6.29
>>> reading("CCc1cc(N(CC)CC)ccc1NC(=O)c1c(-c2c(Cl)cccc2Cl)noc1C")
7.39
>>> reading("CCN(CC)c1ccc(NC(=O)c2c(-c3c(Cl)cccc3Cl)noc2C)c(C#N)c1")
5.35

Looking up CCN(CC)C(=O)c1ccccc1NC(=O)c1c(-c2c(Cl)cccc2Cl)noc1C , I see its pIC50 listed as 5.60

###

- study-system: Growth hormone secretagogue receptor type 1 (Homo sapiens)
- assay-remarks: Inhibition of ghrelin-induced increase of intracellular [Ca2+] in CHO K cell FLIPR assay
- Assay type: functional, cell-based
pIC50: −log10 of the molar value.
Classify by measured pIC50: rule met if it is equal to or exceeds 6, rule not met if it is smaller.

>>> discrete_label("CCN(C)c1ccc(NC(=O)c2c(-c3c(Cl)cccc3Cl)noc2C)cc1")
"rule not met"
>>> discrete_label("Cc1onc(-c2c(Cl)cccc2Cl)c1C(=O)Nc1ccccc1CC1c2ccccc2CCN1C (stereo not given)")
"rule not met"
>>> discrete_label("CCN(CC)c1ccc(NC(=O)c2c(-c3c(Cl)cccc3Cl)noc2C)cc1C")
"rule not met"
>>> discrete_label("CCN(CC)c1ccc(NC(=O)c2c(-c3ccccc3Cl)noc2C)cc1")
"rule met"
>>> discrete_label("CCCN(CC)c1ccc(NC(=O)c2c(-c3c(Cl)cccc3Cl)noc2C)cc1")
"rule met"
>>> discrete_label("CCN(CC)c1ccc(NC(=O)c2c(-c3c(Cl)cccc3Cl)noc2C)c(C)c1")
"rule met"
>>> discrete_label("Cc1onc(-c2c(Cl)cccc2Cl)c1C(=O)Nc1ccccc1C(=O)N1CCCCC1")
"rule not met"
>>> discrete_label("CCN(CC)c1ccc(NC(=O)c2c(-c3ccccc3OC)noc2C)cc1")
"rule not met"

**Q:** Assess whether reported pIC50 for O=C(Nc1ccccc1C(=O)N1CCCCC1)c1c(-c2c(Cl)cccc2Cl)noc1CCC1OCCCO1 sits at 6 or higher.
**A:** rule not met

**Q:** Assess whether reported pIC50 for CCN(CC)c1ccc(NC(=O)c2c(-c3ccc(Cl)cc3)noc2C)cc1 sits at 6 or higher.
**A:** rule not met

###

- study-system: Growth hormone secretagogue receptor type 1 (Homo sapiens)
- assay-remarks: Inhibition of ghrelin-induced increase of intracellular [Ca2+] in CHO K cell FLIPR assay
- Assay type: functional, cell-based
result-type: IC50 (µM)
Report as a plain number; the unit µM is understood.

>>> reading("CCN(CC)c1ccc(NC(=O)c2c(-c3c(Cl)cccc3Cl)noc2CCC2OCCCO2)cc1")
0.014
>>> reading("CCN(CC)c1ccc(NC(=O)c2c(-c3ccccc3[N+](=O)[O-])noc2C)cc1")
0.62
>>> reading("Cc1onc(-c2c(Cl)cccc2Cl)c1C(=O)Nc1ccccc1C(=O)NCc1ccccc1")
10.5
>>> reading("CCN(CC)c1ccc(NC(=O)c2c(-c3ccccc3Br)noc2C)cc1")
0.28
>>> reading("Cc1onc(-c2c(Cl)cccc2Cl)c1C(=O)Nc1ccccc1C(=O)NCc1ccc2c(c1)OCO2")
4.9

Looking up CCN(CCO)c1ccc(NC(=O)c2c(-c3c(Cl)cccc3Cl)noc2C)cc1 , I see its IC50 listed as 3.1

Looking up CCN(CC)c1ccc(NC(=O)c2c(-c3c(Cl)cccc3Cl)noc2C)c(OC)c1 , I see its IC50 listed as 2.9

Looking up CCN(CC)c1ccc(NC(=O)c2c(-c3ccccc3)noc2C)cc1 , I see its IC50 listed as 7.6

Looking up CCN(CC)c1ccc(NC(=O)c2c(-c3ccccc3-c3ccccc3)noc2C)cc1 , I see its IC50 listed as 6.3
